# Test system: NCI-H460 lung
# Assay protocol: NCI-60 one-dose screen, 48 h (100 = growth as untreated, 0 = no growth, -100 = all killed)
# Condition details: 10 µM
Compounds without any hit were thinned out: in the full panel of roughly 83,000, 20% have a hit.
Measured quantity: growth (%)
Give the quantity in %, number only.

>>> data_value("O=C(Nc1ccncc1)C(=O)c1cn(S(=O)(=O)c2cccc(Cl)c2)c2ccccc12")
82.2

Sample COc1ccc(C2=NN(C(=O)c3ccc(S(C)(=O)=O)cc3)C(c3ccc(OC)c(OC)c3)C2)c(OC)c1 (stereo not given) ; growth observed: 107

# compound O=C(O)CC(Cl)C(Cl)CC(=O)O (stereo not given) ; its growth = 101

So, O=S(=O)(NCCNc1nccc(-c2c(-c3ccc(F)cc3)nc3sccn23)n1)c1ccc2ccccc2c1 ? Its growth was 55

Reported growth ( Cc1cs/c(=N\NC(=O)c2cc(-c3cc4ccccc4o3)nn2-c2ccccc2)n1-c1ccccc1 ) = 97.1

----------
# Test system: MDA-MB-435 melanoma
# Assay protocol: NCI-60 one-dose screen, 48 h (100 = growth as untreated, 0 = no growth, -100 = all killed)
# Condition details: 10 µM
This is part of a sample that, as a whole, favours compounds with a hit. Of some 83,000 tested, about 20% had one in any assay. The source made the active and inactive calls. Rule for the calls: active = growth percent below 10; inactive = the rest.
Measured quantity: growth

>>> data_value("Clc1ccc(-c2cn(-c3ccccc3)c(-c3ccccc3)n2)c(Cl)c1")
"-37.2% (active)"

The observed growth for C=C1c2c(C)nn(-c3ccc(OC)cc3)c2N(C)C23C[C@@H]1C1(C)c4c(C)nn(-c5ccc(OC)cc5)c4N(C)C(C)(C[C@H]12)C3 (some centres not stated) when tested with MDA-MB-435 melanoma stands at 34% (inactive)

Lab entry: MDA-MB-435 melanoma assay, compound Cc1ccc(C(=O)Nc2cccc(F)c2)cc1NC(=O)C1(c2ncnc3[nH]ccc23)CC1 , growth = 74% (inactive)

----------
# Test system: NCI-H522 lung
# Assay protocol: NCI-60 one-dose screen, 48 h
# Condition details: 10 µM
Compounds without any hit were thinned out: in the full panel of roughly 83,000, 20% have a hit. Active and inactive are the calls of the source. Rule for the calls: active = growth percent below 10; inactive = the rest.
Use one of these outcomes when replying: active, inactive

Illustrative cases are given below, each with its answer.
>>> discrete_label("c1ccc([C@H]2CN3CCSC3=N2)cc1")
"inactive"
>>> discrete_label("CCN(CC)CCCOCCCNc1cc(OC)cc2cccnc12")
"inactive"
>>> discrete_label("Cc1ccc(-c2n[nH]c(=O)c3noc(-c4ccc(C)cc4)c23)cc1")
"inactive"
>>> discrete_label("O=C(O)c1ccc(P(=O)(O)O)c([N+](=O)[O-])c1")
"inactive"
>>> discrete_label("O=C1c2ccc3c4c(ccc(c24)C(=O)N1CCNCc1ccccc1)C(=O)N(CCNCc1ccccc1)C3=O")
"active"

What outcome does the record of this test show for COc1ccc(-c2nc3ccccn3c2-c2nnc(-c3cc(OC)c(OC)c(OC)c3)o2)cc1 ?
inactive

Assay outcome for Cc1ccc(C(=O)Nc2cccc(F)c2)cc1NC(=O)C1(c2ncnc3[nH]ccc23)CC1 : what was it?
inactive

So what was the verdict on CC(C)(C)c1cc(Br)cc(C(C)(C)C)c1O in this test?
inactive

Write down the call the test reported for this molecule. Item: COc1ccc2c(c1)-c1c(c3cc(OC)ccc3n(CCN(C)C)c1=O)C2=O
active

Hi, sorry to bother you, what did the test record for Cc1ccc(C(=O)N2C/C(=C/c3ccc(F)cc3)C(=O)/C(=C/c3ccc(F)cc3)C2)cc1 ?
inactive

Where do these numbers come from? They come from PubChem BioAssay (NCI).
